experiment: Enzyme stability in human liver S9 fractions; format: in vitro ADME; settings: 0.5 mg/mL pooled human liver S9 fractions; 10 μM compound; 37° C.; pH 7.4; read-out: Stability in liver S9 fractions, Clint
Counter-ions that a name gives are not always drawn.
I'd be grateful if you could share measured Intrinsic clearance in human liver S9 fractions at 10 µM for these entries.
I only need the number, in µL/min/mg, no unit after it.

Request: State the recorded Intrinsic clearance in human liver S9 fractions at 10 µM for this entry: C=CC(=O)Nc1cc(Nc2nccc(C(=O)c3ccc(N4CC[C@@H](O)C4)cc3)n2)c(OC)cc1N(C)CCN(C)C [EGFR_3365_113]
Result: 10.5

Request: Next record, please: C=CC(=O)Nc1cc(Nc2nccc(C(=O)c3ccc(N4CCCCC4)cc3)n2)c(OC)cc1N(C)CCN(C)C [EGFR_3365_90]
Result: 23.1

Request: Next record, please: C=CC(=O)Nc1cc(Nc2nccc(C(=O)c3ccc(N(CC)CC)cc3)n2)c(OC)cc1N(C)CCN(C)C [EGFR_3365_72]
Result: 20.2

Request: Next record, please: C=CC(=O)Nc1cc(Nc2nccc(C(=O)c3ccc(N4CCN(C)CC4)cc3)n2)c(OC)cc1N(C)CCN(C)C [EGFR_3365_62, formate]
Result: 3.7

Request: Next record, please: C=CC(=O)Nc1cc(Nc2cc(C(=O)c3ccc(OCCC)cc3)ccn2)c(OC)cc1N(C)CCN(C)C [EGFR_3365_50]
Result: 1.1

Request: Next record, please: C=CC(=O)Nc1cc(Nc2nccc(C(=O)c3ccc(OCCC)cc3OCCC)n2)c(OC)cc1N(C)CCN(C)C [EGFR_3365_70]
Result: 0.7

Request: Next record, please: C=CC(=O)Nc1cc(Nc2cc(C(=O)c3ccccc3OC)ccn2)c(OC)cc1N(C)CCN(C)C [EGFR_3365_88]
Result: 17

---

List of IC50 tested on WT EGFR (Wild-Type EGFR) (Homo sapiens, UniProt P00533).
Sequence (P00533 25-1210): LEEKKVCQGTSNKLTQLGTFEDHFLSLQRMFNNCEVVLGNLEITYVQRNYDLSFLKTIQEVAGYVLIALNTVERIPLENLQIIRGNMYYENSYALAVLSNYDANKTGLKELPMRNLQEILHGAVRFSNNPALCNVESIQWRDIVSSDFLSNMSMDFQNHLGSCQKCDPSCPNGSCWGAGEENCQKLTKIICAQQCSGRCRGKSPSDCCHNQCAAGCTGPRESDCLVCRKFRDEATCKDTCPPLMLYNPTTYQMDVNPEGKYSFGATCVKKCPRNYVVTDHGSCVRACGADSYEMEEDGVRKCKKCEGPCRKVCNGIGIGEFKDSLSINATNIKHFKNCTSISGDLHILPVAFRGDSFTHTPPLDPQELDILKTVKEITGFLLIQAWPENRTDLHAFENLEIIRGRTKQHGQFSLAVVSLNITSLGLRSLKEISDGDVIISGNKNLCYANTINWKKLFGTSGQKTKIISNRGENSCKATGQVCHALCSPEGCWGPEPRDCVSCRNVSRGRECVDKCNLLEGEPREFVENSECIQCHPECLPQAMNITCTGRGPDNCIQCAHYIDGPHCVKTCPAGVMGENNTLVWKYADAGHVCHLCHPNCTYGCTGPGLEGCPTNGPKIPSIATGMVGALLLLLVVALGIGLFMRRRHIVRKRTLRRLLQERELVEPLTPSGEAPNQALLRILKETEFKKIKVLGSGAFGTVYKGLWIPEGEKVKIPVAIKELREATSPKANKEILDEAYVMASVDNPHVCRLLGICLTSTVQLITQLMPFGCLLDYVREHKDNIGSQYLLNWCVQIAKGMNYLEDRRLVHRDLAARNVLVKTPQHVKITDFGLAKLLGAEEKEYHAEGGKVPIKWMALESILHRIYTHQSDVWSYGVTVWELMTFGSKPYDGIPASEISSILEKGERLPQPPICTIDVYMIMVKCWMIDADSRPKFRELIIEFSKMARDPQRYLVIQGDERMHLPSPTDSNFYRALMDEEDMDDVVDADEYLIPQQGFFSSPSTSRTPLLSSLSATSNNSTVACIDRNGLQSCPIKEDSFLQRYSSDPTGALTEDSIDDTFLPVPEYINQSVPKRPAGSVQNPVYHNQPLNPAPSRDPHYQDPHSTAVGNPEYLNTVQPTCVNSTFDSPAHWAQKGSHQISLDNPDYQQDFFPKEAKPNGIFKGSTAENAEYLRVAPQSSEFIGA
I only need the number, in nM, no unit after it.

Request: State the recorded IC50 for this entry: `C=CC(=O)Nc1cc(Nc2nccc(C(=O)c3ccc(N4CCC(C#N)CC4)cc3)n2)c(OC)cc1N(C)CCN(C)C`
Result: 84.2

Request: Next record, please: `C=CC(=O)Nc1cc(Nc2cc(C(=O)c3ccc(-c4cnn(C)c4)cc3)ccn2)c(OC)cc1N(C)CCN(C)C`
Result: 60

Request: Next record, please: `C=CC(=O)Nc1cc(Nc2nccc(C(=O)c3ccc(N4CCCCC4)cc3OC)n2)c(OC)cc1N(C)CCN(C)C`
Result: 19.7

Request: Next record, please: `C=CC(=O)Nc1cc(Nc2cc(C(=O)c3ccccc3)ccn2)c(OC)cc1N(C)CCN(C)C`
Result: 76.6

Request: Next record, please: `C=CC(=O)Nc1cc(Nc2nccc(C(=O)c3ccc(N4CC(OC)C4)cc3)n2)c(OC)cc1N(C)CCN(C)C`
Result: 53.1

Request: Next record, please: `C=CC(=O)Nc1cc(Nc2nccc(C(=O)c3ccc(OCCC)cc3)n2)c(OC)cc1N(C)CCN(C)C`
Result: 613

Request: Next record, please: `C=CC(=O)Nc1cc(Nc2cc(C(=O)c3ccc(N(CC)CC)cc3)ccn2)c(OC)cc1N(C)CCN(C)C`
Result: 145
